# measured.target: GST-tagged human ROCK2 catalytic domain 1-553 (Homo sapiens (Human), UniProt O75116)
# Sequence (O75116 1-553): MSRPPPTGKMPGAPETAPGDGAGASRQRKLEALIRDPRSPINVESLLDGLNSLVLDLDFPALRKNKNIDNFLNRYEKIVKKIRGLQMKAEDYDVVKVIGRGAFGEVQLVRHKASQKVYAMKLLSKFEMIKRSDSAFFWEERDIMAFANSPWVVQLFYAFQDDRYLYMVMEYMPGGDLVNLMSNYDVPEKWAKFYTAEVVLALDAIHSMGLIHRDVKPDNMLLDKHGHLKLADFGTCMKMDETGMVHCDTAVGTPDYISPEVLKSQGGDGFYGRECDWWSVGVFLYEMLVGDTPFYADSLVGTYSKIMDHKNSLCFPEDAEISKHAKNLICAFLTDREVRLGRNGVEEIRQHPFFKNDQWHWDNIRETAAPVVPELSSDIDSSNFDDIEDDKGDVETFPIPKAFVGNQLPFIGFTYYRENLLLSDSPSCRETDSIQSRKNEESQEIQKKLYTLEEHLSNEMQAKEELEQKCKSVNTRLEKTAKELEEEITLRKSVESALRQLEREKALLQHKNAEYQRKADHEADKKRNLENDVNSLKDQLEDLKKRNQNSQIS
# assay.name: Inhibition of Rho-associated protein kinase isoform 2 (LANCE Ultra ULight-CREBtide FRET kinase assay)
# Assay type: biochemical
# condition.summary: selectivity ROCK2 vs ROCK1
quantity.measured: Selectivity for ROCK2 over ROCK1 (IC50 ROCK1 / IC50 ROCK2)

// known answers, use as guide
# compound, measured.target, result
records = [
    ("Cn1cnc2c(-c3nnc(Nc4ccc5[nH]ncc5c4)s3)cccc21", "GST-tagged human ROCK2 catalytic domain 1-553 (Homo sapiens (Human), UniProt O75116)", "<5"),
    ("Clc1c(Nc2nnc(-c3cccn4cc(C5CCNCC5)nc34)s2)ccc2[nH]ncc12 [Example 50H]", "GST-tagged human ROCK2 catalytic domain 1-553 (Homo sapiens (Human), UniProt O75116)", ">5"),
    ("CC(C)NC(=O)COc1cccc(-c2nnc(Nc3ccc4[nH]ncc4c3)s2)c1 [Example A-23]", "GST-tagged human ROCK2 catalytic domain 1-553 (Homo sapiens (Human), UniProt O75116)", ">50"),
]

Log: GST-tagged human ROCK2 catalytic domain 1-553 (Homo sapiens (Human), UniProt O75116), compound CN1C(=O)Cc2cccc(-c3nnc(Nc4ccc5[nH]ncc5c4Cl)s3)c21 [Example 56C] , Selectivity for ROCK2 over ROCK1 (IC50 ROCK1 / IC50 ROCK2) = <5

Data credit: patent US10112935B2
